Listed below: % Activity (Ex. 25 Reference Compound) values for each entry.
- Experimental Target: human GPR120 (Homo sapiens)
- Construct: Flag (DYKDDDDK) (N); host or cells: HEK293 cells co-expressing Gqi5
- Experimental Protocol: Intracellular Ca2+ assay (FLIPR Calcium 4, Flexstation) in human GPR120 stable cell line
- Format: cell-based
- Measurement Context: % activity at 2.5 μM compared to the maximal activity of the compound of Example 25 at 2.5 μM; HEK293 cells co-expressing Gqi5
Outcome Measure: % Activity (Ex. 25 Reference Compound) (%)

- Compound: "CC(C)Oc1cc(OCc2cc(F)cc3c2OC(C)(C)C3)ccc1CCC(=O)O"
  Experimental Target: "human GPR120 (Homo sapiens)"
  Recorded Measurement: 151.78
- Compound: "Cc1cc(OCc2cc(F)cc3c2OC(C)(C)C3)c(C)cc1CCC(=O)O"
  Experimental Target: "human GPR120 (Homo sapiens)"
  Recorded Measurement: 111.45
- Compound: "COc1cc(COc2ccc(CC(C)C(=O)O)cc2)c2c(c1)CC(C)(C)O2 (stereo not shown)"
  Experimental Target: "human GPR120 (Homo sapiens)"
  Recorded Measurement: 143.85
- Compound: "Cc1c(CCC(=O)O)ccc(OCc2cc(F)cc3c2OC(C)(C)C3)c1C"
  Experimental Target: "human GPR120 (Homo sapiens)"
  Recorded Measurement: 147.47

---

Listed here are compounds together with their documented % Activity (Ex. 25 Reference Compound).
- Experimental Target: human GPR120 (Homo sapiens)
- Construct: Flag (DYKDDDDK) (N); host or cells: HEK293 cells co-expressing Gqi5
- Experimental Protocol: Intracellular Ca2+ assay (FLIPR Calcium 4, Flexstation) in human GPR120 stable cell line
- Type: cell-based
- Measurement Context: % activity at 2.5 μM compared to the maximal activity of the compound of Example 25 at 2.5 μM; HEK293 cells co-expressing Gqi5
Outcome Measure: % Activity (Ex. 25 Reference Compound) (%)

- Compound: "CC(C)Oc1ncccc1COc1ccc2c(c1)CCC2CC(=O)O (centres unmarked)"
  Unit String: "%"
  Recorded Measurement: 118.5
- Compound: "C[C@H](Cc1ccc(OCc2cc(Cl)cc3c2OC(C)(C)C3)c(C(F)(F)F)c1)C(=O)O"
  Unit String: "%"
  Recorded Measurement: 90.56
- Compound: "CC1(C)Cc2c(COc3ccc4c(c3)CC[C@@H]4CC(=O)O)cc(F)cc2O1"
  Unit String: "%"
  Recorded Measurement: 104.04
- Compound: "CC1(C)Cc2cc(Cl)cc(COc3ccc(CCC(=O)O)c(-c4ccccc4)c3)c2O1"
  Unit String: "%"
  Recorded Measurement: 133.8
- Compound: "Cc1cc(OCc2cc(F)cc3c2OC(C)(C)C3)c(F)cc1CCC(=O)O"
  Unit String: "%"
  Recorded Measurement: 143.21
- Compound: "CC(Cc1ccc(OCc2cc(Cl)cc3c2OC(C)(C)C3O)c(F)c1)C(=O)O (centres unmarked)"
  Unit String: "%"
  Recorded Measurement: 86.25
- Compound: "CC1(C)Cc2c(ccc(F)c2COc2c(F)cc(C3CC3C(=O)O)cc2F)O1 (centres unmarked)"
  Unit String: "%"
  Recorded Measurement: 101.53
- Compound: "CC(Cc1ccc(OCc2cc(F)cc3c2OC(C)(C)C3)cc1)C(=O)NO (centres unmarked)"
  Unit String: "%"
  Recorded Measurement: 110.24

---

- Experimental Target: human GPR120 (Homo sapiens, UniProt Q5NUL3)
- Construct: Flag (DYKDDDDK) (N); host or cells: HEK293 cells co-expressing Gqi5
- Sequence (Q5NUL3 1-361): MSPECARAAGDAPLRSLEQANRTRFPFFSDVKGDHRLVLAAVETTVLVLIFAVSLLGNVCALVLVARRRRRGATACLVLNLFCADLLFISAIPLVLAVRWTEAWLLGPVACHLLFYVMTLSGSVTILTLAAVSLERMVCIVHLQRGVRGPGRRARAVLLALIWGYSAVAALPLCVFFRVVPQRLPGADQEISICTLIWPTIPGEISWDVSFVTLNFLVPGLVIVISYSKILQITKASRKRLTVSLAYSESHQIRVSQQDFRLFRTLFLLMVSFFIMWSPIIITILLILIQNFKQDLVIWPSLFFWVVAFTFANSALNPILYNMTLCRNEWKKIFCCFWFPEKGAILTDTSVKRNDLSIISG
- Experimental Protocol: Intracellular Ca2+ assay (FLIPR Calcium 4, Flexstation) in human GPR120 stable cell line
- Type: cell-based
- Measurement Context: % activity at 2.5 μM compared to the maximal activity of the compound of Example 25 at 2.5 μM; HEK293 cells co-expressing Gqi5

- Compound: "CC1(C)Cc2cc(Cl)cc(COc3ccc(SCC(=O)O)cc3)c2O1"
  % Activity (Ex. 25 Reference Compound): "117.58%"
- Compound: "CC1(C)Cc2cc(Cl)cc(COc3c(F)cc(C4CC4CC(=O)O)cc3F)c2O1 (stereo not shown)"
  % Activity (Ex. 25 Reference Compound): "116.46%"
- Compound: "[2H]C([2H])(Oc1ccc(CC(C)C(=O)O)cc1C(F)(F)F)c1cc(F)cc2c1OC(C)(C)C2 (stereo not shown)"
  % Activity (Ex. 25 Reference Compound): "101.01%"
- Compound: "CC1(C)Cc2cc(F)cc(COc3ccc(CC(=O)O)cc3)c2O1"
  % Activity (Ex. 25 Reference Compound): "103.4%"

---

- Experimental Target: human GPR120 (Homo sapiens, UniProt Q5NUL3)
- Construct: Flag (DYKDDDDK) (N); host or cells: HEK293 cells co-expressing Gqi5
- Experimental Protocol: Intracellular Ca2+ assay (FLIPR Calcium 4, Flexstation) in human GPR120 stable cell line
- Assay type: cell-based
- Measurement Context: % activity at 2.5 μM compared to the maximal activity of the compound of Example 25 at 2.5 μM; HEK293 cells co-expressing Gqi5
Outcome Measure: % Activity (Ex. 25 Reference Compound) (%)

- Compound: "CC1(C)Cc2cc(Cl)cc(COc3ccc4c(c3)CC[C@@H]4CC(=O)O)c2O1"
  Recorded Measurement: 105.44
- Compound: "CC(=O)NCCOC(=O)C(C)Cc1ccc(OCc2cc(Cl)cc3c2OC(C)(C)C3)c(C(F)(F)F)c1 (stereo not drawn)"
  Recorded Measurement: 47.02
- Compound: "O=C(O)C1CC1c1ccc(OCc2cc(F)cc3c2OC2(CCCC2)C3)cc1 (stereo not drawn)"
  Recorded Measurement: 158.08
- Compound: "CC1(C)Cc2cc(F)cc(COc3ccc4c(c3)CC[C@@H]4CC(=O)O)c2O1"
  Recorded Measurement: 106
- Compound: "CC(Cc1ccc(OCc2cc(Cl)cc3c2OC(C)(C)C3O)cc1)C(=O)O (stereo not drawn)"
  Recorded Measurement: 103.85
- Compound: "[2H]C([2H])(Oc1ccc(CC(C)C(=O)O)cc1F)c1cc(F)cc2c1OC(C)(C)C2 (stereo not drawn)"
  Recorded Measurement: 86.25
